Taken from ChEMBL document CHEMBL1201861.

- Test system: EOL1;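 note: growth inhibition of EoL-1 cells, read out by a cell viability assay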
- protocol-details: cells
- Type: functional, cell-based, Homo sapiens
- stated-conditions: Homo sapiens, EOL1
- Description: SANGER: Inhibition of human EoL-1-cell cell growth in a cell viability assay.
Would you kindly list pIC50 for each of these molecules?
API: returns pIC50 as number; meaning -log10 of concentration in mol/L.

Request: Sample OC[C@H](Cc1ccccc1)Nc1nc(Oc2ccc3c(c2)CCC3)nc2c1ncn2Cc1ccc(-c2ccccc2)cc1 — what was its pIC50?
Result: 5.73

Request: Sample C=CC(=O)N1CCCC(Nc2nc(Nc3ccc(N(C)C(=O)CC)cc3)nc3[nH]cnc23)C1 (configuration not stated) — what was its pIC50?
Result: 5.36

Request: Sample CN(C)CCOc1ccc(-c2nc(-c3ccncc3)c(-c3ccc4c(c3)CC/C4=N\O)[nH]2)cc1 — what was its pIC50?
Result: 6.74

Request: Sample CCCCCCCCCCCC1=C(O)C(=O)C=C(O)C1=O — what was its pIC50?
Result: 5.17
